assay: Solid-state stability (HPLC purity and crystal form by XRPD after storage); type: physicochemical; conditions: 40 °C/75% RH/open, 1 week; HPLC; 10080 min
Where a name gives a salt, the structure may show the parent alone.
Reported Endpoint: Purity (area %)

Compound | Reported Endpoint | Unit | Readout Number
CNCc1ccc(NS(=O)(=O)c2ccsc2)c(-c2ccco2)c1 [sulfate crystal form D] | Purity | area % | 98.76
CNCc1ccc(NS(=O)(=O)c2ccsc2)c(-c2ccco2)c1 [benzene sulfonate crystal form J] | Purity | area % | 98.87
CNCc1ccc(NS(=O)(=O)c2ccsc2)c(-c2ccco2)c1 [malate crystal form F] | Purity | area % | 98.74
CNCc1ccc(NS(=O)(=O)c2ccsc2)c(-c2ccco2)c1 [Malonate crystal form K] | Purity | area % | 98.64
CNCc1ccc(NS(=O)(=O)c2ccsc2)c(-c2ccco2)c1 [Tartrate crystal form H] | Purity | area % | 98.7
CNCc1ccc(NS(=O)(=O)c2ccsc2)c(-c2ccco2)c1 [free crystal form A] | Purity | area % | 98.19
CNCc1ccc(NS(=O)(=O)c2ccsc2)c(-c2ccco2)c1 [succinate crystal form E] | Purity | area % | 98.92
CNCc1ccc(NS(=O)(=O)c2ccsc2)c(-c2ccco2)c1 [Pyroglutamate crystal form I] | Purity | area % | 98.61
CNCc1ccc(NS(=O)(=O)c2ccsc2)c(-c2ccco2)c1 [hydrochloride crystal form C] | Purity | area % | 99.02
CNCc1ccc(NS(=O)(=O)c2ccsc2)c(-c2ccco2)c1 [Phosphate crystal form G] | Purity | area % | 98.11

---

Assay: Solid-state stability (HPLC purity and crystal form by XRPD after storage)
Type: physicochemical
Details: initial, starting sample before storage; HPLC
Experimental: About 10 mg of each solid form of the compound was weighed and added to the HPLC vial, respectively, the bottleneck was sealed with a sealing film, and 10 small holes were made on the film. The vial was placed in 25° C./60% RH and 40° C./75% RH environment for 4 weeks, samples were taken in the 1st week, the 2nd week and the 4th week respectively, the purity (by HPLC analysis) and crystal form (by X ray powder diffraction analysis) of the sample were investigated.
Counter-ions that a name gives are not always drawn.
Reported Endpoint: Initial purity (area %)

Compound | Unit | Initial purity
CNCc1ccc(NS(=O)(=O)c2ccsc2)c(-c2ccco2)c1 [Pyroglutamate crystal form I] | area % | 98.61
CNCc1ccc(NS(=O)(=O)c2ccsc2)c(-c2ccco2)c1 [benzene sulfonate crystal form J] | area % | 98.87
CNCc1ccc(NS(=O)(=O)c2ccsc2)c(-c2ccco2)c1 [free crystal form A] | area % | 98.11
CNCc1ccc(NS(=O)(=O)c2ccsc2)c(-c2ccco2)c1 [succinate crystal form E] | area % | 98.82
CNCc1ccc(NS(=O)(=O)c2ccsc2)c(-c2ccco2)c1 [Tartrate crystal form H] | area % | 98.71
CNCc1ccc(NS(=O)(=O)c2ccsc2)c(-c2ccco2)c1 [sulfate crystal form D] | area % | 98.77
CNCc1ccc(NS(=O)(=O)c2ccsc2)c(-c2ccco2)c1 [fumarate crystal form B] | area % | 98.55
CNCc1ccc(NS(=O)(=O)c2ccsc2)c(-c2ccco2)c1 [Phosphate crystal form G] | area % | 98.11
CNCc1ccc(NS(=O)(=O)c2ccsc2)c(-c2ccco2)c1 [Malonate crystal form K] | area % | 98.64
CNCc1ccc(NS(=O)(=O)c2ccsc2)c(-c2ccco2)c1 [hydrochloride crystal form C] | area % | 99.02
CNCc1ccc(NS(=O)(=O)c2ccsc2)c(-c2ccco2)c1 [malate crystal form F] | area % | 98.72
